The origin of these recorded values is paper PMC9469100.

Items are presented alongside their recorded pIC50.
target: PRMT5/MEP50 complex (Homo sapiens); assay: Radioisotope-based filter-binding (HotSpot) assay, PRMT5; settings: read-out: IC50 PRMT5 (Figure 5 heatmap); radioisotope-based filter assay
Sequence (O14744 2-637): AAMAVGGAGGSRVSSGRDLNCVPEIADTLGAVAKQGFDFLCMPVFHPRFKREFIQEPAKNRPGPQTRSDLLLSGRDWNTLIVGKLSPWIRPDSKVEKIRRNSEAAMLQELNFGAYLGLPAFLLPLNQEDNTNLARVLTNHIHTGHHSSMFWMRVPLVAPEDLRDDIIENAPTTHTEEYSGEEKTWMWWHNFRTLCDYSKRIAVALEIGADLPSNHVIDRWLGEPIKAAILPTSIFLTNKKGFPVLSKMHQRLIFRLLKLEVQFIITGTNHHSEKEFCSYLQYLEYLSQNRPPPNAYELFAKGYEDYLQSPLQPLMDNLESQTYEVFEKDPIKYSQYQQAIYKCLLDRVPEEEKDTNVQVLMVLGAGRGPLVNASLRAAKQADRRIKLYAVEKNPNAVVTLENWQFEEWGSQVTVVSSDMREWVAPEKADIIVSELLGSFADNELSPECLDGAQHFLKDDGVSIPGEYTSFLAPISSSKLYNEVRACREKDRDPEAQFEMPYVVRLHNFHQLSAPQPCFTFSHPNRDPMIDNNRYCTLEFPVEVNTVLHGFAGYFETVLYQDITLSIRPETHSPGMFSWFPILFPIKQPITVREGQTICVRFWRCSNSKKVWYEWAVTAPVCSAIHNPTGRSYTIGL
Sequence (Q9BQA1 2-342 partner limits assumed): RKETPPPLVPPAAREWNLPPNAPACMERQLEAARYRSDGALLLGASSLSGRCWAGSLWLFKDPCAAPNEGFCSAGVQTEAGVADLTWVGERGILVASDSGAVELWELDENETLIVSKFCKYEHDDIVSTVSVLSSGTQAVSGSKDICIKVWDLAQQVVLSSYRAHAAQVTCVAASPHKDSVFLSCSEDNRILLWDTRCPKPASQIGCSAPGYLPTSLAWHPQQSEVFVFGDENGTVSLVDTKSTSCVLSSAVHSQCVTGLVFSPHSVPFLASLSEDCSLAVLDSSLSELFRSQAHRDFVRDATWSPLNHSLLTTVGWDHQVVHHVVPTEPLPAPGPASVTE
Recall that pIC50 is obtained by taking minus log10 of the concentration measured in molar.

Compound	pIC50
COC(=O)c1cc(O)c2cc(NC(=O)NCCCCNC(=N)NC/C=C/[C@H]3O[C@@H](n4cnc5c(N)ncnc54)[C@H](O)[C@@H]3O)ccc2c1 [12h]	5.84

Please turn your attention to the following entry.
# compound COC(=O)c1cc(O)c2cc(NC(=O)NCCCCCCCNC(=N)NC[C@H]3O[C@@H](n4cnc5c(N)ncnc54)[C@H](O)[C@@H]3O)ccc2c1 [12e] ; its pIC50 = 5.47
